Target: recombinant human TDP2 (Homo sapiens, UniProt O95551)
Sequence (O95551 whole entry): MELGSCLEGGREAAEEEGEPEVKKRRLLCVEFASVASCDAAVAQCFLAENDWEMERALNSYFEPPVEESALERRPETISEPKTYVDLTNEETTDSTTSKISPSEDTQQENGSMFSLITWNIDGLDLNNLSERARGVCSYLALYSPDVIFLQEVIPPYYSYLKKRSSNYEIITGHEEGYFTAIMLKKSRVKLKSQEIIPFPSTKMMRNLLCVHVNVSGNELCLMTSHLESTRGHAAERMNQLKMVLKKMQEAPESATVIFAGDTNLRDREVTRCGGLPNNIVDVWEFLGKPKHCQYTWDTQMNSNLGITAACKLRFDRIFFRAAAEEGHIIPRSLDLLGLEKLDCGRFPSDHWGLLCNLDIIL
Assay: Recombinant TDP2 assay
Measure Name: IC50 (µM)
Numbers only, in µM.

Provide recombinant human TDP2 (Homo sapiens, UniProt O95551) IC50 reading for "O=C1Cc2cc(-c3ccco3)ccc2C(=O)N1" .
8.5

* * *

Target: recombinant human TDP2 (Homo sapiens, UniProt O95551)
Assay: Recombinant TDP2 assay
Type: biochemical
Conditions: recombinant human TDP2, concentrations up to 111 μM
Measure Name: Inhibition of recombinant TDP2 (in words)

molecule_smiles=O=C1Cc2c(Br)cccc2C(=O)N1 system_under_test="recombinant human TDP2 (Homo sapiens, UniProt O95551)" data_value=inactive
molecule_smiles=O=C1Cc2cc(-c3ccco3)ccc2C(=O)N1O system_under_test="recombinant human TDP2 (Homo sapiens, UniProt O95551)" data_value=inactive
molecule_smiles=O=C1Cc2c(cccc2-c2ccco2)C(=O)N1 system_under_test="recombinant human TDP2 (Homo sapiens, UniProt O95551)" data_value=inactive
molecule_smiles=O=C1Cc2c(cccc2-c2cccc([N+](=O)[O-])c2)C(=O)N1 system_under_test="recombinant human TDP2 (Homo sapiens, UniProt O95551)" data_value=inactive
